Data origin: ChEMBL document CHEMBL5108084

- test-method-notes: Drug metabolism in human hepatocytes assessed as compound metabolized at 1 uM incubated for 4 hrs by LC-MS/MS analysis
- Type: ADME, cell-based, Hepatocyte
- setup-conditions: read-out: Drug metabolism
observable: metabolised at 4 h, 1 µM (%)

{"substance-smiles": "CC(=O)N1CCC(COc2ccc(-c3ccn[nH]3)nc2)CC1", "observable": "metabolised at 4 h, 1 µM", "numeric-result": -5.8}

* * *

- measured-target: CYP2C9 (Homo sapiens, UniProt P11712)
- Sequence (P11712 whole entry): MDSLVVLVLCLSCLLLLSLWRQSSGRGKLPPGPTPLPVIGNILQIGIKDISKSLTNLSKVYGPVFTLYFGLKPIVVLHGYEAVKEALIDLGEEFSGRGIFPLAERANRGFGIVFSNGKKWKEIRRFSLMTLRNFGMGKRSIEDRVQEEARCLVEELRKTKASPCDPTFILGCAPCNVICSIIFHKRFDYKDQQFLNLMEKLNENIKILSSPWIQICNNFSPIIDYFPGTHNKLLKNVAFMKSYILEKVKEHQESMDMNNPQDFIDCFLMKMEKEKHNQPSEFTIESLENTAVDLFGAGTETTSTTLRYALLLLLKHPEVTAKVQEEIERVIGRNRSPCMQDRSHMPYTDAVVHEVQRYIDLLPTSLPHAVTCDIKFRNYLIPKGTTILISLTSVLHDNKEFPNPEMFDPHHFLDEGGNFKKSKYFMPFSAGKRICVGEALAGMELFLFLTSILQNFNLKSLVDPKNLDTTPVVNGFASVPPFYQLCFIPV
- test-method-notes: Inhibition of CYP2C9 in human liver microsomes at 10 uM using diclofenac as substrate preincubated for 5 mins followed by NADPH generating system addition and measured after 5 to 10 mins by LC-MS/MS analysis
- Assay type: ADME, Microsome
- setup-conditions: probe diclofenac, time 10-15 min
Please enter true (1) where inhibition at 10 µM is greater than or equal to 10%, and false (0) where it is lower.

{"substance-smiles": "CC(=O)N1CCC(COc2ccc(-c3ccn[nH]3)nc2)CC1", "class-assignment": "false (0)"}
{"substance-smiles": "CS(=O)(=O)c1cccc(COc2ccc(-c3ccn[nH]3)nc2)c1", "class-assignment": "false (0)"}
{"substance-smiles": "Cc1ncsc1CCOc1cnc(-c2ccn[nH]2)nc1", "class-assignment": "true (1)"}
{"substance-smiles": "N#Cc1cccc(COc2ccc(-c3ccn[nH]3)nc2)c1", "class-assignment": "true (1)"}
{"substance-smiles": "N#Cc1ccc(COc2ccc(-c3ccn[nH]3)nc2)cc1", "class-assignment": "false (0)"}
{"substance-smiles": "Cc1ncsc1CCOc1ccc(-c2ccn[nH]2)cc1", "class-assignment": "true (1)"}
{"substance-smiles": "Cc1ncsc1CCOc1ccc(-c2ccn[nH]2)nc1", "class-assignment": "false (0)"}
{"substance-smiles": "Fc1ccc(COc2ccc(-c3ccn[nH]3)nc2)cc1", "class-assignment": "true (1)"}
{"substance-smiles": "CS(=O)(=O)c1ccc(COc2ccc(-c3ccn[nH]3)nc2)cc1", "class-assignment": "false (0)"}
